These entries and their values trace back to patent US20240325561A1.

Molecular target: T1, CD19 (UniProt P15391 20-556, limits assumed)
T1 sequence (looked up): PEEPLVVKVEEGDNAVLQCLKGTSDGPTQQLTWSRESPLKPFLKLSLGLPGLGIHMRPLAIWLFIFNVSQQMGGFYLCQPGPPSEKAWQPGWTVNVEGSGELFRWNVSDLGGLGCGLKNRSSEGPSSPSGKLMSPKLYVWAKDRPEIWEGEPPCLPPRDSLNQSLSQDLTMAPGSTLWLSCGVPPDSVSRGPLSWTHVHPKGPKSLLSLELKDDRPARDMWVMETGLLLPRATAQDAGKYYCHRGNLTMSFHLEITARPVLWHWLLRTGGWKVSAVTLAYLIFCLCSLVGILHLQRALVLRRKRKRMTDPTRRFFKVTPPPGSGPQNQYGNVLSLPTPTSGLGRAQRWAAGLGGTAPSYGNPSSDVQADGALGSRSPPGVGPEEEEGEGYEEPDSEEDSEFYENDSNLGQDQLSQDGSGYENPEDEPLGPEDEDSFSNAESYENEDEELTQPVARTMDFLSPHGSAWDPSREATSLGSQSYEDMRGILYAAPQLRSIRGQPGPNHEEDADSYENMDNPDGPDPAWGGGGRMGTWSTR
Test: cell-based or functional assay
Exercise: for every item that follows, state its recorded IC50, in vitro cytotoxicity, Ramos cells.

Prompt: For hBU12-17 (antibody, V domains shown, antibody carries drug-linker 17 (MDpr-Lys(PEG12)-glucuronide-MMAE), 8 drugs per antibody) VH: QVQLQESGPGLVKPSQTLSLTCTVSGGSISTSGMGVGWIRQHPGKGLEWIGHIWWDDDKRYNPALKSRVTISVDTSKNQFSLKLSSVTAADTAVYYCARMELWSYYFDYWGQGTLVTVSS VL: EIVLTQSPATLSLSPGERATLSCSASSSVSYMHWYQQKPGQAPRLLIYDTSKLASGIPARFSGSGSGTDFTLTISSLEPEDVAVYYCFQGSVYPFTFGQGTKLEIKR , write its IC50, in vitro cytotoxicity, Ramos cells.
Response: 2 ng/mL

Prompt: For hBU12-18 (antibody, V domains shown, antibody carries drug-linker 18 (MDpr-Lys(PEG8)-glucuronide-MMAE), 8 drugs per antibody) VH: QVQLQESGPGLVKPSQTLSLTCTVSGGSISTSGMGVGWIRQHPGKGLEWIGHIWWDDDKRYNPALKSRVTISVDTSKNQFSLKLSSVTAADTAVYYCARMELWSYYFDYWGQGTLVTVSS VL: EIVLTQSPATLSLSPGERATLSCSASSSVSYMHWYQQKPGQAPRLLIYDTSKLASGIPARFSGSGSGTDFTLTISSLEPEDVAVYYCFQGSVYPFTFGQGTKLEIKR , write its IC50, in vitro cytotoxicity, Ramos cells.
Response: 2 ng/mL
